// data source = ChEMBL document CHEMBL1135024

5-hydroxytryptamine receptor 1A (Homo sapiens, UniProt P08908): reported Ki for various compounds.
Sequence (P08908 whole entry): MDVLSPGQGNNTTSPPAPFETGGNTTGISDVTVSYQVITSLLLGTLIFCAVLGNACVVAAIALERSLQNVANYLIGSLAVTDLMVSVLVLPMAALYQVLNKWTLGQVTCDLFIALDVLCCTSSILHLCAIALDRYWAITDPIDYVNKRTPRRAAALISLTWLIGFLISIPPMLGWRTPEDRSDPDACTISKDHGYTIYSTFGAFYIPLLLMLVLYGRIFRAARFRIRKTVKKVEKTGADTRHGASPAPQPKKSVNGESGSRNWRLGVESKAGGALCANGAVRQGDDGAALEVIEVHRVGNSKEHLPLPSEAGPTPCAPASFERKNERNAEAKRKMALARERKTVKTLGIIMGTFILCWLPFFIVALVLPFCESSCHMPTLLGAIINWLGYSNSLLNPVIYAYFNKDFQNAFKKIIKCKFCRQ
# number only, unit nM dropped from output

Take a look at these entries with their results.
>  <input_smiles>
Fc1ccc2c(C3CCN(CCOc4cccc5c4OCCO5)CC3)c[nH]c2c1

>  <target_under_test>
5-hydroxytryptamine receptor 1A (Homo sapiens, UniProt P08908)

>  <measurement_unit>
nM

>  <recorded_result>
19.6

$$$$
>  <input_smiles>
C1=C(c2c[nH]c3ccccc23)CCN(CCOc2cccc3ncccc23)C1

>  <target_under_test>
5-hydroxytryptamine receptor 1A (Homo sapiens, UniProt P08908)

>  <measurement_unit>
nM

>  <recorded_result>
92.6

$$$$
>  <input_smiles>
C1=C(c2c[nH]c3ccccc23)CCN(CCOc2cccc3[nH]ccc23)C1

>  <target_under_test>
5-hydroxytryptamine receptor 1A (Homo sapiens, UniProt P08908)

>  <measurement_unit>
nM

>  <recorded_result>
21.6

$$$$

# input compound: Fc1ccc2c(C3=CCN(CCOc4cccc5c4OCCO5)CC3)c[nH]c2c1 ; wanted: its Ki
83.6
